Data provenance is patent US9388162B2.

target: μ-opioid receptors (Homo sapiens (Human)); test: μ-opioid receptor [35S]GTPγS functional assay, U-2 OS cells; format: biochemical; settings: μ GTP, relative to DAMGO, read-out: Activity Response μ Emax (%)
Recorded Metric: Emax (%)
Quick reminder: number only, in %, skip the unit.

[ask] Look up Emax for this molecule: O=C1C[C@]23CCN(CC4CC4)[C@H](Cc4ccc(O)cc42)[C@]3(O)C[C@@H]1Cc1ccccc1
[reply] 17.7

[ask] Look up Emax for this molecule: COc1ccc2c(c1)[C@]13CCN(CC4CC4)[C@H](C2)[C@]1(O)C[C@H](CCOCc1ccccc1)C(=O)C3
[reply] 98

[ask] Look up Emax for this molecule: CCC(C)C[C@H]1C[C@@]2(O)[C@H]3Cc4ccc(O)cc4[C@@]2(CCN3CC2CC2)CC1=O (stereo partly shown)
[reply] 2.5

[ask] Look up Emax for this molecule: CN1CC[C@]23CC(=O)[C@@H](CC(=O)N4CCCCC4)C[C@@]2(O)[C@H]1Cc1ccc(O)cc13
[reply] 74

[ask] Look up Emax for this molecule: CN1CC[C@]23CC(=O)[C@@H](CC(=O)O)C[C@@]2(O)[C@H]1Cc1ccc(O)cc13
[reply] 77.3

[ask] Look up Emax for this molecule: CN1CC[C@]23CC(=O)[C@@H](CC(=O)N4CCC(O)CC4)C[C@@]2(O)[C@H]1Cc1ccc(O)cc13
[reply] 84.3

[ask] Look up Emax for this molecule: COc1ccc2c(c1)[C@]13CCN(CC4CC4)[C@H](C2)[C@]1(O)C[C@H](CCO)C(=O)C3
[reply] 68.7

----------
target: κ opioid receptor (Homo sapiens (Human)); experiment: κ-opioid receptor [35S]GTPγS functional assay, HEK-293 cells; type: biochemical; conditions: κ GTP, read-out: Activity Response κ EC50 (nM) [mean ± SEM]
Please respond with reported EC50 for every item in the list.
Quick reminder: number only, in nM, skip the unit.

[ask] Look up EC50 for this molecule: C[C@H](NC(=O)C[C@H]1C[C@@]2(O)[C@H]3Cc4ccc(O)cc4[C@@]2(CCN3CC2CC2)CC1=O)C(=O)O [Compound 15]
[reply] 221

[ask] Look up EC50 for this molecule: CCOC(=O)C[C@H]1C[C@@]2(O)[C@H]3Cc4ccc(OC)cc4[C@@]2(CCN3CC2CC2)CC1=O [Compound 1]
[reply] 5110

[ask] Look up EC50 for this molecule: O=C1C[C@]23CCN(CC4CC4)[C@H](Cc4ccc(O)cc42)[C@]3(O)C[C@@H]1CCO [Compound 54]
[reply] 5.02

[ask] Look up EC50 for this molecule: COc1ccc2c(c1)[C@]13CCN(CC4CC4)[C@H](C2)[C@]1(O)C[C@H](CC(=O)O)C(=O)C3 [Compound 8]
[reply] 4440

[ask] Look up EC50 for this molecule: COc1ccc2c(c1)[C@]13CCN(CC4CC4)[C@H](C2)[C@]1(O)C[C@H](CCOCc1ccccc1)C(=O)C3 [Compound 48]
[reply] 362

[ask] Look up EC50 for this molecule: CC(C)[C@@H]1C[C@H]2[C@H]3Cc4ccc(O)cc4[C@@]2(CCN3CC2CC2)CC1=O [Compound 73]
[reply] 6.07

[ask] Look up EC50 for this molecule: CC(C)[C@H]1C[C@H]2[C@H]3Cc4ccc(O)cc4[C@@]2(CCN3CC2CC2)CC1=O [Compound 74]
[reply] 3.52

[ask] Look up EC50 for this molecule: COc1ccc2c(c1)[C@]13CCN(CC4CC4)[C@H](C2)[C@@H]1C[C@@H](C(C)C)C(=O)C3 [Compound 72]
[reply] 1050

[ask] Look up EC50 for this molecule: O=C(O)C[C@H]1C[C@@]2(O)[C@H]3Cc4ccc(O)cc4[C@@]2(CCN3CC2CC2)CC1=O [Compound 9]
[reply] 17.3

[ask] Look up EC50 for this molecule: CC(C)CC[C@H]1C[C@@]2(O)[C@H]3Cc4ccc(O)cc4[C@@]2(CCN3CC2CC2)CC1=O [Compound 64]
[reply] 4.3

[ask] Look up EC50 for this molecule: CC(C)C[C@H](NC(=O)C[C@H]1C[C@@]2(O)[C@H]3Cc4ccc(O)cc4[C@@]2(CCN3CC2CC2)CC1=O)C(=O)O [Compound 19]
[reply] 201

----------
Molecular target: μ-opioid receptors (Homo sapiens (Human), UniProt P35372)
Assay: μ-opioid receptor [35S]GTPγS functional assay, U-2 OS cells
Assay type: biochemical
Settings: μ GTP, read-out: Activity Response μ EC50 (nM) [mean ± SEM]
Procedure: [^35S]GTPγS functional assays were conducted using freshly thawed μ-receptor membranes prepared from a cell line expressing recombinant μ opioid receptor in a HEK-293, CHO or U-2 OS cell background or purchased from a commercial source (Perkin Elmer, Shelton, Conn.; or DiscovRx, Fremont, Calif.). […] BetaScint scintillation cocktail (Perkin Elmer, Shelton, Conn.) was added (50 μl/well) and plates were counted using a Packard Top-Count for 1 min/well. […]
Recorded Metric: EC50 (nM)
Quick reminder: number only, in nM, skip the unit.

[ask] Look up EC50 for this compound: CN1CC[C@]23CC(=O)[C@@H](CC(=O)N4CCC(O)CC4)C[C@@]2(O)[C@H]1Cc1ccc(O)cc13
[reply] 1000

[ask] Look up EC50 for this compound: O=C1C[C@]23CCN(CC4CC4)[C@H](Cc4ccc(OCc5ccccc5)cc42)[C@]3(O)C[C@@H]1CCO
[reply] 787

[ask] Look up EC50 for this compound: COc1ccc2c(c1)[C@]13CCN(CC4CC4)[C@H](C2)[C@]1(O)C[C@H](O)C(=O)C3
[reply] 578

[ask] Look up EC50 for this compound: COc1ccc2c(c1)[C@]13CCN(CC4CC4)[C@H](C2)[C@]1(O)C[C@H](NC(=O)C(C)C)C(=O)C3
[reply] 7110

[ask] Look up EC50 for this compound: O=C1C[C@]23CCN(CC4CC4)[C@H](Cc4ccc(O)cc42)[C@]3(O)C[C@@H]1Cc1ccccc1
[reply] 6.76

----------
target: μ-opioid receptors (Homo sapiens (Human)); experiment: μ-opioid receptor [35S]GTPγS functional assay, U-2 OS cells; assay type: biochemical; details: μ GTP, relative to DAMGO, read-out: Activity Response μ Emax (%)
Please respond with reported Emax for every item in the list.
Quick reminder: number only, in %, skip the unit.

[ask] Look up Emax for this compound: C[C@H](NC(=O)C[C@H]1C[C@@]2(O)[C@H]3Cc4ccc(O)cc4[C@@]2(CCN3C)CC1=O)C(=O)O [Compound 75]
[reply] 95

[ask] Look up Emax for this compound: CC(C)C(=O)N[C@H]1C[C@@]2(O)[C@H]3Cc4ccc(O)cc4[C@@]2(CCN3CC2CC2)CC1=O [Compound 27]
[reply] 8

[ask] Look up Emax for this compound: COc1ccc2c(c1)[C@]13CCN(C)[C@H](C2)[C@]1(O)C[C@H](CC(=O)N1CCCCC1)C(=O)C3 [Compound 76]
[reply] 61.7

[ask] Look up Emax for this compound: CCOC(=O)C[C@H]1C[C@@]2(O)[C@H]3Cc4ccc(OC)cc4[C@@]2(CCN3C)CC1=O [Compound 59]
[reply] 100

----------
biological target: κ opioid receptor (Homo sapiens (Human)); test: κ-opioid receptor [35S]GTPγS functional assay, U-2 OS cells; format: biochemical; conditions: κ GTP, relative to U69,593, read-out: Activity Response κ Emax (%)
Please enter yes (1) where Emax is greater than or equal to 90%, and no (0) where it is lower.

[ask] Does CC(C)CC(=O)N[C@H]1C[C@@]2(O)[C@H]3Cc4ccc(O)cc4[C@@]2(CCN3CC2CC2)CC1=O have a reported Emax of at least 90%?
[reply] no (0)

[ask] Does CC(C)(C)C(=O)N[C@H]1C[C@@]2(O)[C@H]3Cc4ccc(O)cc4[C@@]2(CCN3CC2CC2)CC1=O have a reported Emax of at least 90%?
[reply] yes (1)

[ask] Does CN1CC[C@]23CC(=O)[C@@H](CC(=O)N4CCC(O)CC4)C[C@@]2(O)[C@H]1Cc1ccc(O)cc13 have a reported Emax of at least 90%?
[reply] no (0)

[ask] Does CC(C)C(=O)N[C@H]1C[C@@]2(O)[C@H]3Cc4ccc(O)cc4[C@@]2(CCN3CC2CC2)CC1=O have a reported Emax of at least 90%?
[reply] yes (1)

[ask] Does COc1ccc2c(c1)[C@]13CCN(CC4CC4)[C@H](C2)[C@]1(O)C[C@H](CCO)C(=O)C3 have a reported Emax of at least 90%?
[reply] yes (1)

[ask] Does O=C1C[C@]23CCN(CC4CC4)[C@H](Cc4ccc(O)cc42)[C@]3(O)C[C@@H]1Cc1ccccc1 have a reported Emax of at least 90%?
[reply] yes (1)

----------
target: μ-opioid receptors (Homo sapiens (Human), UniProt P35372); assay: μ-opioid receptor [35S]GTPγS functional assay, HEK-293 cells; assay type: biochemical; details: μ GTP, read-out: Activity Response μ EC50 (nM) [mean ± SEM]
Please respond with reported EC50 for every item in the list.
Quick reminder: number only, in nM, skip the unit.

[ask] Look up EC50 for this compound: C[C@H](NC(=O)C[C@H]1C[C@@]2(O)[C@H]3Cc4ccc(O)cc4[C@@]2(CCN3CC2CC2)CC1=O)C(=O)O
[reply] 43.8

[ask] Look up EC50 for this compound: O=C1C[C@]23CCN(CC4CC4)[C@H](Cc4ccc(O)cc42)[C@]3(O)C[C@@H]1CCO
[reply] 14.2

[ask] Look up EC50 for this compound: CC(C)CNC(=O)C[C@H]1C[C@@]2(O)[C@H]3Cc4ccc(O)cc4[C@@]2(CCN3C)CC1=O
[reply] 2330

[ask] Look up EC50 for this compound: CC(C)C[C@H](NC(=O)C[C@H]1C[C@@]2(O)[C@H]3Cc4ccc(O)cc4[C@@]2(CCN3CC2CC2)CC1=O)C(=O)O
[reply] 49.7

[ask] Look up EC50 for this compound: COc1ccc2c(c1)[C@]13CCN(CC4CC4)[C@H](C2)[C@]1(O)CC(CC(=O)O)(CC(=O)O)C(=O)C3
[reply] 14700

[ask] Look up EC50 for this compound: CN1CC[C@]23CC(=O)[C@@H](CC(=O)NCC4CC4)C[C@@]2(O)[C@H]1Cc1ccc(O)cc13
[reply] 1260

[ask] Look up EC50 for this compound: COc1ccc2c(c1)[C@]13CCN(CC4CC4)[C@H](C2)[C@]1(O)C[C@H](CC(=O)O)C(=O)C3
[reply] 703

[ask] Look up EC50 for this compound: COc1ccc2c(c1)[C@]13CCN(CC4CC4)[C@H](C2)[C@@H]1C[C@@H](C(C)C)C(=O)C3
[reply] 212

[ask] Look up EC50 for this compound: COc1ccc2c(c1)[C@]13CCN(CC4CC4)[C@H](C2)[C@]1(O)C[C@H](CCOCc1ccccc1)C(=O)C3
[reply] 463

[ask] Look up EC50 for this compound: CCOC(=O)C[C@H]1C[C@@]2(O)[C@H]3Cc4ccc(OC)cc4[C@@]2(CCN3CC2CC2)CC1=O
[reply] 3400

[ask] Look up EC50 for this compound: CN1CC[C@]23CC(=O)[C@@H](CC(=O)NCc4ccccc4)C[C@@]2(O)[C@H]1Cc1ccc(O)cc13
[reply] 456

[ask] Look up EC50 for this compound: CC(C)[C@H]1C[C@H]2[C@H]3Cc4ccc(O)cc4[C@@]2(CCN3CC2CC2)CC1=O
[reply] 2.31

[ask] Look up EC50 for this compound: COc1ccc2c(c1)[C@]13CCN(CC4CC4)[C@H](C2)[C@]1(O)C[C@H](CC(=O)N[C@@H](C)C(=O)O)C(=O)C3
[reply] 4600

[ask] Look up EC50 for this compound: COc1ccc2c(c1)[C@]13CCN(CC4CC4)[C@H](C2)[C@]1(O)C[C@H](CC(=O)N[C@@H](CC(C)C)C(=O)O)C(=O)C3
[reply] 2750

[ask] Look up EC50 for this compound: CC(C)[C@@H]1C[C@H]2[C@H]3Cc4ccc(O)cc4[C@@]2(CCN3CC2CC2)CC1=O
[reply] 2.85

[ask] Look up EC50 for this compound: COc1ccc2c(c1)[C@]13CCN(CC4CC4)[C@H](C2)[C@]1(O)C[C@H](CC(=O)N1CCC[C@H]1C(=O)O)C(=O)C3
[reply] 6770
